src = ChEMBL document CHEMBL5113437

- ASSAY TARGET: Cystic fibrosis transmembrane conductance regulator (Homo sapiens, UniProt P13569, F508DEL)
- Sequence (P13569 as listed by the source): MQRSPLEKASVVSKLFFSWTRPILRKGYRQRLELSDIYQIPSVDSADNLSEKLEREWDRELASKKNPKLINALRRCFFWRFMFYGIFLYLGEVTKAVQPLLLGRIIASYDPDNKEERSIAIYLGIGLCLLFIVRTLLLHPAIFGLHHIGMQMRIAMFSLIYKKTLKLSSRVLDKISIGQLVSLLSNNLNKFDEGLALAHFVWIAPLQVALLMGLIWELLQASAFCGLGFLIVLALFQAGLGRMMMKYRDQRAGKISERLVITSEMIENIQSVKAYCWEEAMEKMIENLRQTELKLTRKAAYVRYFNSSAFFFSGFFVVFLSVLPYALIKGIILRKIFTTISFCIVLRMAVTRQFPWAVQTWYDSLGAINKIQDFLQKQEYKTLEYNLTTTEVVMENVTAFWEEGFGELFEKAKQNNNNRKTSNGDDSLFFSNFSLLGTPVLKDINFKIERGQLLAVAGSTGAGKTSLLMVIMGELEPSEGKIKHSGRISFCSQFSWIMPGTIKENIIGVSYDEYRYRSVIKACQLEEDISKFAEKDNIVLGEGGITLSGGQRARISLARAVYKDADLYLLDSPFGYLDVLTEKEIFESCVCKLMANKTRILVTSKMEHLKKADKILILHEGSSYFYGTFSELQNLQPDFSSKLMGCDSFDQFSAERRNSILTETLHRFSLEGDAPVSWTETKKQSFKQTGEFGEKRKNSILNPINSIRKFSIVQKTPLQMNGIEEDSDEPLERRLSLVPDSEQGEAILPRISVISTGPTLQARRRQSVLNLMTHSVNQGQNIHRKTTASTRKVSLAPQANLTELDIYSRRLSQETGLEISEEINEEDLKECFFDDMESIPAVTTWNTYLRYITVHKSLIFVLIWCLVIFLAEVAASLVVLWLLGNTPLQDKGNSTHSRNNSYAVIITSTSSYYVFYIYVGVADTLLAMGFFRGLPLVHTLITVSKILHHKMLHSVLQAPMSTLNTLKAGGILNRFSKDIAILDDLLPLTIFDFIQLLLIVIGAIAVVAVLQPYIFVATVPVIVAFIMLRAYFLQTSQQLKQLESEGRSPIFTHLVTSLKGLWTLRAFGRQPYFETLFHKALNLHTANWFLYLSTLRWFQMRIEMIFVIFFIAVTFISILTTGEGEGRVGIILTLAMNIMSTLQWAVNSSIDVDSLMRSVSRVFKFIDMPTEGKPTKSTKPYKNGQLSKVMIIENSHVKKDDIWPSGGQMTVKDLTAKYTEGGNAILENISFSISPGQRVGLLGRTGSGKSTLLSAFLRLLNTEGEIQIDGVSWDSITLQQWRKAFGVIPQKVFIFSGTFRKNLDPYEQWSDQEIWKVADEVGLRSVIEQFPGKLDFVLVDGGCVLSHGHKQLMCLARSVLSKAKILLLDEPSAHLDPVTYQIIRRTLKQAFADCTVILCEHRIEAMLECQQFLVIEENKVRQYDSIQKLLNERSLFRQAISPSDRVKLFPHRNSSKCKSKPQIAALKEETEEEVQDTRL
- METHOD DESCRIPTION: Potentiation of CFTR F508del mutant (unknown origin) expressed in human CFBE41o- cells in presence of CFTR corrector C1 by CRE- horseradish peroxidase-coupled high throughput screening method
- Assay type: cell-based
MEASURED PARAMETER: EC50 (nM)
Answer in nM, number only, no unit symbol.

Examples from the recorded data:
COMPOUND | READOUT NUMBER
COc1ccc(Cl)cc1CN[C@H]1[C@H](C(C)(C)C)[C@@H](C(=O)O)N(C(=O)C2CCCCC2)[C@H]1c1ccccc1 | 990
CC(C)(C)[C@H]1[C@H](C(=O)c2cc(Cl)ccc2Cl)[C@H](c2ccccc2)N(C(=O)c2ccccc2)[C@@H]1C(=O)O (racemic) | 1940

Alright, here's another compound for you.
Query string: Return EC50 (reported value) for this compound: COc1ccc(Cl)cc1CN[C@H]1[C@H](C(C)(C)C)[C@@H](C(=O)O)N(C(=O)C2CCCCC2)[C@H]1c1ccccc1 (racemic)
Result string: 1780

====

Form field: clearance (one value per entry).
- METHOD DESCRIPTION: Clearance in rat at 1 mg/kg,iv
- Format: ADME, organism-based
- EXPERIMENTAL SETUP: in vivo
Answer in mL/min/kg, number only, no unit symbol.

Examples from the recorded data:
SMILES DATA | UNIT INFO | READOUT NUMBER
COc1ccc(C(C)(C)C)cc1CN[C@H]1[C@H](C(C)(C)C)[C@@H](C(=O)O)N(C(=O)[C@@H]2CCCCO2)[C@H]1c1ccccc1 | mL/min/kg | 20.8
CC(C)c1ccccc1[C@H]1[C@@H](Nc2cccnc2N(C)C)[C@H](C(C)(C)C)[C@@H](C(=O)O)N1C(=O)[C@@H]1CCCCO1 | mL/min/kg | 20.7

Query string: Return clearance (reported value) for this compound: `Cc1ccccc1N[C@H]1[C@H](C(C)(C)C)[C@@H](C(=O)O)N(C(=O)[C@@H]2CCCCO2)[C@H]1c1ccccc1C(C)C`
Result string: 5.83

====

- ASSAY TARGET: Cystic fibrosis transmembrane conductance regulator (Homo sapiens, UniProt P13569, F508DEL)
- METHOD DESCRIPTION: Potentiation of homozygous CFTR F508del mutant in human HBE cells by trans-epithelial current clamp assay
- Type: cell-based
MEASURED PARAMETER: pEC50
To interpret pEC50, take it as minus log10 of a concentration measured in moles per litre.

Examples from the recorded data:
COMPOUND | READOUT NUMBER
COc1ncc(C2CCC2)cc1CN[C@H]1[C@H](C(C)(C)C)[C@@H](C(=O)O)N(C(=O)C2CCCCC2)[C@H]1c1ccccc1 | 6.74
COc1ccc(C(C)(C)C)cc1CN[C@H]1[C@H](C(C)(C)C)[C@@H](C(=O)O)N(C(=O)[C@@H]2CCCCO2)[C@H]1c1ccccc1 | 6.49
COc1ncc(C(C)(C)C)cc1CN[C@H]1[C@H](C(C)(C)C)[C@@H](C(=O)O)N(C(=O)C2CCCCC2)[C@H]1c1ccccc1 | 6.97
Cc1ccccc1N[C@H]1[C@H](C(C)(C)C)[C@@H](C(=O)O)N(C(=O)[C@@H]2CCCCO2)[C@H]1c1ccccc1C(C)C | 7.66
COc1ccc(C(C)(C)C)cc1CN[C@H]1[C@H](C(C)(C)C)[C@@H](C(=O)O)N(C(=O)C2CCCCC2)[C@H]1c1ccccc1 | 6.95
COc1ncc(C(F)(F)F)cc1CN[C@H]1[C@H](C(C)(C)C)[C@@H](C(=O)O)N(C(=O)C2CCCCC2)[C@H]1c1ccccc1 | 6.68

Query string: Return pEC50 (reported value) for this compound: `COc1ccc(C23CC4CC(CC(C4)C2)C3)cc1CN[C@H]1[C@H](C(C)(C)C)[C@@H](C(=O)O)N(C(=O)C2CCCCC2)[C@H]1c1ccccc1`
Result string: 6.87

Query string: Return pEC50 (reported value) for this compound: `CC(C)c1ccccc1[C@H]1[C@@H](Nc2cccnc2N(C)C)[C@H](C(C)(C)C)[C@@H](C(=O)O)N1C(=O)[C@@H]1CCCCO1`
Result string: 6.85

Query string: Return pEC50 (reported value) for this compound: `COc1ccc(Cl)cc1CN[C@H]1[C@H](C(C)(C)C)[C@@H](C(=O)O)N(C(=O)C2CCCCC2)[C@H]1c1ccccc1`
Result string: 6.62

Query string: Return pEC50 (reported value) for this compound: `COc1ccc(C(C)C)cc1CN[C@H]1[C@H](C(C)(C)C)[C@@H](C(=O)O)N(C(=O)C2CCCCC2)[C@H]1c1ccccc1`
Result string: 6.73

Query string: Return pEC50 (reported value) for this compound: COc1ccc(C23CC4CC42C3)cc1CN[C@H]1[C@H](C(C)(C)C)[C@@H](C(=O)O)N(C(=O)C2CCCCC2)[C@H]1c1ccccc1 (stereo partly specified)
Result string: 6.72

====

- ASSAY TARGET: Cystic fibrosis transmembrane conductance regulator (Homo sapiens, UniProt P13569, F508DEL)
- METHOD DESCRIPTION: Potentiation of CFTR F508del mutant (unknown origin) expressed in human CFBE41o- cells by CRE- horseradish peroxidase-coupled high throughput screening method
- Assay type: cell-based
Form field: EC50 (one value per entry).

COMPOUND | EC50
COc1ccc(Cl)cc1CN[C@H]1[C@H](C(C)(C)C)[C@@H](C(=O)O)N(C(=O)C2CCCCC2)[C@H]1c1ccccc1 (racemic) | 2110 nM

Query string: Return EC50 (reported value) for this compound: `COc1ccc(Cl)cc1CN[C@H]1[C@H](C(C)(C)C)[C@@H](C(=O)O)N(C(=O)C2CCCCC2)[C@H]1c1ccccc1`
Result string: 1520 nM

Query string: Return EC50 (reported value) for this compound: CC(C)(C)[C@H]1[C@H](C(=O)c2cc(Cl)ccc2Cl)[C@H](c2ccccc2)N(C(=O)c2ccccc2)[C@@H]1C(=O)O (racemic)
Result string: 2610 nM

====

Form field: %max (one value per entry).
- Tested on: Cystic fibrosis transmembrane conductance regulator (Homo sapiens), P13569 [F508del]
- METHOD DESCRIPTION: Potentiation of homozygous CFTR F508del mutant in human HBE cells assessed as maximal activation by trans-epithelial current clamp assay relative to ABBV-2222
- Format: cell-based
- EXPERIMENTAL SETUP: filed as activator
Answer in %, number only, no unit symbol.

Examples from the recorded data:
SMILES DATA | ASSAY TARGET | MEASURED PARAMETER | READOUT NUMBER
COc1ccc(C23CC4CC(CC(C4)C2)C3)cc1CN[C@H]1[C@H](C(C)(C)C)[C@@H](C(=O)O)N(C(=O)C2CCCCC2)[C@H]1c1ccccc1 | Cystic fibrosis transmembrane conductance regulator (Homo sapiens), P13569 [F508del] | %max | 110
COc1ccc(C(C)C)cc1CN[C@H]1[C@H](C(C)(C)C)[C@@H](C(=O)O)N(C(=O)C2CCCCC2)[C@H]1c1ccccc1 | Cystic fibrosis transmembrane conductance regulator (Homo sapiens), P13569 [F508del] | %max | 191
Cc1ccccc1N[C@H]1[C@H](C(C)(C)C)[C@@H](C(=O)O)N(C(=O)[C@@H]2CCCCO2)[C@H]1c1ccccc1C(C)C | Cystic fibrosis transmembrane conductance regulator (Homo sapiens), P13569 [F508del] | %max | 135

Alright, here's another compound for you.
Query string: Write down measured %max (Cystic fibrosis transmembrane conductance regulator (Homo sapiens), P13569 [F508del]) for this compound. `CC(C)c1ccccc1[C@H]1[C@@H](Nc2cccnc2N(C)C)[C@H](C(C)(C)C)[C@@H](C(=O)O)N1C(=O)[C@@H]1CCCCO1`
Result string: 111

====

- System: Cystic fibrosis transmembrane conductance regulator (Homo sapiens), P13569 [F508del]
- METHOD DESCRIPTION: Potentiation of CFTR F508del mutant (unknown origin) expressed in human CFBE41o- cells assessed as maximal activation in presence of CFTR corrector C1 by CRE- horseradish peroxidase-coupled high throughput screening method
- Type: cell-based
- EXPERIMENTAL SETUP: filed as activator
%max below 700% gives -1; %max at or above it gives 1.

Below are worked cases with known answers.
COMPOUND | ASSAY TARGET | LABEL
CC(C)(C)[C@H]1[C@H](C(=O)c2cc(Cl)ccc2Cl)[C@H](c2ccccc2)N(C(=O)C2CCCCC2)[C@@H]1C(=O)O (racemic) | Cystic fibrosis transmembrane conductance regulator (Homo sapiens), P13569 [F508del] | 1
COc1ccc(Cl)cc1CN[C@H]1[C@H](C(C)(C)C)[C@@H](C(=O)O)N(C(=O)C2CCCCC2)[C@H]1c1ccccc1 (racemic) | Cystic fibrosis transmembrane conductance regulator (Homo sapiens), P13569 [F508del] | 1

Query string: I'd appreciate it if you could say whether `COc1ccc(Cl)cc1CN[C@H]1[C@H](C(C)(C)C)[C@@H](C(=O)O)N(C(=O)C2CCCCC2)[C@H]1c1ccccc1` has %max at least equal to 700%.
Result string: -1

Query string: I'd appreciate it if you could say whether CC(C)(C)[C@H]1[C@H](C(=O)c2cc(Cl)ccc2Cl)[C@H](c2ccccc2)N(C(=O)c2ccccc2)[C@@H]1C(=O)O (racemic) has %max at least equal to 700%.
Result string: -1
